assay: protein stability index of a GFP-peptide fusion (yeast GPS) (PSI 1-4); higher = more stable; sorted into four equal gates, so the index is relative within each strain; details: pdr5∆
readout-kind: protein stability index

[[record]]
sequence_entry = "GINPNTFRIFHNHDTGC [YDL088C/ASM4]"
readout_kind = "protein stability index"
numeric_value = 1.85

[[record]]
sequence_entry = "DIPELSFFHQSNMQKSL [RPN3]"
readout_kind = "protein stability index"
numeric_value = 2.13

[[record]]
sequence_entry = "NENEDEDEGTLNVAEII [ARP9]"
readout_kind = "protein stability index"
numeric_value = 2.91

[[record]]
sequence_entry = "AKKNNFIEDLAPEQQVQ [UBP6]"
readout_kind = "protein stability index"
numeric_value = 3.15

[[record]]
sequence_entry = "GLWGFSTATRNVTMIDD [COR1]"
readout_kind = "protein stability index"
numeric_value = 3.1

[[record]]
sequence_entry = "MFNNHEIDTILSTLRME [RPN9]"
readout_kind = "protein stability index"
numeric_value = 3.51

[[record]]
sequence_entry = "DSDGTRLKGDIFCVGSG [PRE2]"
readout_kind = "protein stability index"
numeric_value = 2.87

[[record]]
sequence_entry = "FKNTRETAQAINGWELT [RPL17A]"
readout_kind = "protein stability index"
numeric_value = 1.58

[[record]]
sequence_entry = "QHTSFQEAVNSLKGYKI [CSI1]"
readout_kind = "protein stability index"
numeric_value = 3.21

[[record]]
sequence_entry = "QVIVDIFSVHGNTVVDG [YCG1]"
readout_kind = "protein stability index"
numeric_value = 2.12

[[record]]
sequence_entry = "LGKQSSSLLSRLISSKM [FAS2]"
readout_kind = "protein stability index"
numeric_value = 2.94

[[record]]
sequence_entry = "HKVSSQSTNLNRSAKNS [YCS4]"
readout_kind = "protein stability index"
numeric_value = 2.41

[[record]]
sequence_entry = "GVEQLHYTGISQSACRE [SSN3]"
readout_kind = "protein stability index"
numeric_value = 2.38

[[record]]
sequence_entry = "DLSRNGRNGSNGNDESS [NUT1]"
readout_kind = "protein stability index"
numeric_value = 3.33

[[record]]
sequence_entry = "RELLVEGYGLRDVMCTD [RPO31]"
readout_kind = "protein stability index"
numeric_value = 2.57

[[record]]
sequence_entry = "PIKADKDYSQILKEEFP [RPN5]"
readout_kind = "protein stability index"
numeric_value = 2.46

[[record]]
sequence_entry = "DLSLIVKARHGGCDYIF [CYT1]"
readout_kind = "protein stability index"
numeric_value = 2.94

[[record]]
sequence_entry = "GNSFNKSSNDTIEHAAD [YCG1]"
readout_kind = "protein stability index"
numeric_value = 2.67

[[record]]
sequence_entry = "NIAKDLKWKKGIRGKLV [SMC1]"
readout_kind = "protein stability index"
numeric_value = 2.04

[[record]]
sequence_entry = "VVDFKNKENDNVPSTKF [SNF12]"
readout_kind = "protein stability index"
numeric_value = 3.23

[[record]]
sequence_entry = "EEKLKANKEKKKAEKAA [RPL24A]"
readout_kind = "protein stability index"
numeric_value = 3.33

[[record]]
sequence_entry = "ELNDIDTKIDQVNGNIR [SMC3]"
readout_kind = "protein stability index"
numeric_value = 3.34

[[record]]
sequence_entry = "RAIDSLIQKGYLQRGDD [CDC53]"
readout_kind = "protein stability index"
numeric_value = 1.94

[[record]]
sequence_entry = "NKIRNLELPLCPYCYKK [SIR2]"
readout_kind = "protein stability index"
numeric_value = 1.95

[[record]]
sequence_entry = "YYKNFHNSVKRYQIMLP [SNM1]"
readout_kind = "protein stability index"
numeric_value = 1.36

[[record]]
sequence_entry = "DDYKDLTCSLYELYINK [IRR1]"
readout_kind = "protein stability index"
numeric_value = 2.75

[[record]]
sequence_entry = "LVQQIQKETQKVTKIWS [PRP28]"
readout_kind = "protein stability index"
numeric_value = 2.58

[[record]]
sequence_entry = "QSSESFDDSDITKFALF [YML103C/NUP188]"
readout_kind = "protein stability index"
numeric_value = 2.23

[[record]]
sequence_entry = "VNIEPFNIDDEIKHGVF [LIN1]"
readout_kind = "protein stability index"
numeric_value = 3

[[record]]
sequence_entry = "PEVSMIRDIREKELKIF [RPB2]"
readout_kind = "protein stability index"
numeric_value = 2.41

[[record]]
sequence_entry = "QTKENKRCVGVILGDAN [RPN8]"
readout_kind = "protein stability index"
numeric_value = 2.9


###

assay: protein stability index of a GFP-peptide fusion (yeast GPS) (PSI 1-4); higher = more stable; sorted into four equal gates, so the index is relative within each strain; conditions: doa10∆
# protein stability index binned as interval 1: < 2; interval 2: ≥ 2 and < 3; interval 3: ≥ 3

[[record]]
sequence_entry = "KLRSELGYKDTSVIQDL [BRR2]"
group = "interval 2"

[[record]]
sequence_entry = "KRINFEKIKDIHNTKLP [POP1]"
group = "interval 2"

[[record]]
sequence_entry = "SETFLQFYVKRWKRFTI [CDC53]"
group = "interval 2"

[[record]]
sequence_entry = "KALILAPTRELVQQIQK [PRP28]"
group = "interval 2"

[[record]]
sequence_entry = "VTIIPLDKIYTRPISSQ [SMC2]"
group = "interval 1"

[[record]]
sequence_entry = "EQQPEQPQETEEHHEEE [RPT4]"
group = "interval 3"

[[record]]
sequence_entry = "VRSEMGEPIHKIATRGV [FAS1]"
group = "interval 3"

[[record]]
sequence_entry = "PASKHDKEVVYFDEWTI [RPC34]"
group = "interval 3"

[[record]]
sequence_entry = "RVNGSEFVHKYLGEGPR [RPT3]"
group = "interval 2"

[[record]]
sequence_entry = "APSLTVPPIASPQQFLR [PRE2]"
group = "interval 1"

[[record]]
sequence_entry = "EEDADQEESFSLNLGIG [SRB8]"
group = "interval 3"

[[record]]
sequence_entry = "VKALRNVPGVETANVAS [RPL4A]"
group = "interval 2"


###

experiment: protein stability index of a GFP-peptide fusion (yeast GPS) (PSI 1-4); higher = more stable; sorted into four equal gates, so the index is relative within each strain; conditions: ubr1∆
Classification field: enter y for protein stability index values not below 3, n for values below it.

[[record]]
sequence_entry = "NGFHGRLGDLGVIDDSF [SMC4]"
group = "y"

[[record]]
sequence_entry = "KDNECSSFEENNDLESV [RRI2]"
group = "y"

[[record]]
sequence_entry = "EEKEEEAAEESDDDMGF [RPP1B]"
group = "y"

[[record]]
sequence_entry = "IQEIKESVELPLTHPEL [RPT2]"
group = "n"

[[record]]
sequence_entry = "ELNSSEDILEDMNSNLQ [SMC1]"
group = "y"

[[record]]
sequence_entry = "KILSPTMYMEVYTAIYN [CDC53]"
group = "n"

[[record]]
sequence_entry = "LNTVLIADLDTEAEETS [RRP43]"
group = "y"

[[record]]
sequence_entry = "LDVTKEAQANLLTAKHG [RPO21]"
group = "y"


###

test: protein stability index of a GFP-peptide fusion (yeast GPS) (PSI 1-4); higher = more stable; sorted into four equal gates, so the index is relative within each strain; conditions: ubr1∆
readout-kind: protein stability index

[[record]]
sequence_entry = "RVKAMEVDEKPTETYSD [RPT5]"
result = 3.12

[[record]]
sequence_entry = "LFRIFSMSEEFKYVSVR [BRR2]"
result = 3.29

[[record]]
sequence_entry = "LNVIIDQLAVSPEQIDA [YCS4]"
result = 2.11

[[record]]
sequence_entry = "ILRMGAFRTIESKSDDN [RRI1]"
result = 2.56

[[record]]
sequence_entry = "FPRTRFEAQIDSVEFIF [RPN10]"
result = 2.81

[[record]]
sequence_entry = "LESYLIVHHPYQSLKQI [SSN8]"
result = 2.38

[[record]]
sequence_entry = "DWEDEEKYEDEDEEKIL [DSN1]"
result = 3.25

[[record]]
sequence_entry = "ANVLDPSLRKLIESGIG [BRR2]"
result = 2.56


###

assay: protein stability index of a GFP-peptide fusion (yeast GPS) (PSI 1-4); higher = more stable; sorted into four equal gates, so the index is relative within each strain; details: san1∆
Classification field: enter 1 (yes) for protein stability index values not below 3, 0 (no) for values below it.

[[record]]
sequence_entry = "GKEFEARNLIEDEDDGE [RPC53]"
group = "1 (yes)"

[[record]]
sequence_entry = "MSNKVKTKAMVPPINCI [SME1]"
group = "0 (no)"

[[record]]
sequence_entry = "SIQMEFMLRKQDPKTLV [SSN2]"
group = "0 (no)"

[[record]]
sequence_entry = "VKLIVMLCTLTGYQNND [YJL039C/NUP192]"
group = "0 (no)"

[[record]]
sequence_entry = "TSFDIKREGRNELQEER [POP6]"
group = "1 (yes)"

[[record]]
sequence_entry = "SPTINRANVYVGFLVQL [PRP8]"
group = "0 (no)"

[[record]]
sequence_entry = "EHRIRVFFDKRIGQEVD [RPS6A]"
group = "0 (no)"

[[record]]
sequence_entry = "HVKRITKIAQSQTMAET [ECM29]"
group = "0 (no)"

[[record]]
sequence_entry = "SKKTGQFNAQGVRDINC [POP1]"
group = "1 (yes)"

[[record]]
sequence_entry = "LEEIRGNPLSIGTLEEI [RPT2]"
group = "1 (yes)"

[[record]]
sequence_entry = "VTDDPIWMRGHGTYFLD [RRP4]"
group = "1 (yes)"

[[record]]
sequence_entry = "DNEQNLESDFVTGASQF [PRE2]"
group = "1 (yes)"

